Origin of the recorded values: patent US20030064915A1

// reported IC50 per item
STUDY_TARGET: HLA-DR2 molecules (Homo sapiens, UniProt P01903+P01911)
Construct: Soluble HLA-DR2 molecules were expressed in Drosophila S2 cells and purified as described; made in house; host or cells: Drosophila S2 cells
TEST_METHOD_NOTES: Competitive binding assay: inhibition of biotinylated MBP 85-99 binding to HLA-DR2 molecules
ASSAY_SETUP: read-out: IC50 (μM) vs. biotinylated: MBP 95-99
No end group written: not given here.
METRIC: IC50

- MONOMER_SEQUENCE: "AKEEYAAYKAAAAAA [#82]"
  REPORTED_MEASUREMENT: "> 1000 µM"
- MONOMER_SEQUENCE: "ENPVVHYFKNIVTPR [#107, reference compound]"
  REPORTED_MEASUREMENT: "< 1 µM"
- MONOMER_SEQUENCE: "AKAEYAAYAAAAAAA [#59]"
  REPORTED_MEASUREMENT: "> 1000 µM"
- MONOMER_SEQUENCE: "EAKAYAAYKAAAAAA [#86]"
  REPORTED_MEASUREMENT: "> 1000 µM"
- MONOMER_SEQUENCE: "AAEAYKAYKAAAAAA [#94]"
  REPORTED_MEASUREMENT: "3 µM"
- MONOMER_SEQUENCE: "EKEAAAAYAAAAAAA [#46]"
  REPORTED_MEASUREMENT: "> 1000 µM"
- MONOMER_SEQUENCE: "AKAAAAEYAAAAAAA [#51]"
  REPORTED_MEASUREMENT: "> 1000 µM"
- MONOMER_SEQUENCE: "AEAKYEAYAAAAAAA [#67]"
  REPORTED_MEASUREMENT: "> 1000 µM"
- MONOMER_SEQUENCE: "EAKEYAAYAAAAAAA [#74]"
  REPORTED_MEASUREMENT: "> 1000 µM"
- MONOMER_SEQUENCE: "AEEKYAAYAAAAAAA [#56]"
  REPORTED_MEASUREMENT: "> 1000 µM"
- MONOMER_SEQUENCE: "EAAKYEAYKAAAAAA [#100]"
  REPORTED_MEASUREMENT: "> 150 µM"
- MONOMER_SEQUENCE: "AEEKYAAYKAAAAAA [#83]"
  REPORTED_MEASUREMENT: "> 1000 µM"
- MONOMER_SEQUENCE: "EAKAYEAYKAAAAAA [#95]"
  REPORTED_MEASUREMENT: "40 µM"
- MONOMER_SEQUENCE: "AAKEYAAYKAAAAAA [#84]"
  REPORTED_MEASUREMENT: "> 1000 µM"
